Provenance of the data: ChEMBL document CHEMBL1128020

target_or_system: Glutamate NMDA receptor
assay_details: Binding affinity at the glycine binding site of the N-methyl-D-aspartate glutamate receptor in rat cortical membranes using [3H]dichlorokynurenate ([3H]DCKA) as radioligand
quantity_kind: IC50
Returns: string containing the numeric result and its unit.

These solved cases illustrate the format of a correct answer.
>>> recorded_result("CCOC(=O)C1Nc2cc(Cl)cc(Cl)c2S(=O)(=O)N1Cc1cccc(C#N)c1 (centres undefined)")
"17 nM"
>>> recorded_result("CCOC(=O)C1Nc2cc(Cl)cc(Cl)c2S(=O)(=O)N1Cc1cccc(-c2ccccc2)c1 (centres undefined)")
"20 nM"
>>> recorded_result("CCOC(=O)C1Nc2cc(Cl)cc(Cl)c2S(=O)(=O)N1CC(=O)c1ccccc1 (centres undefined)")
"22 nM"

Please look at the following compound next.
-- ask Give the measured IC50 of CCOC(=O)C1Nc2cc(Cl)cc(Cl)c2S(=O)(=O)N1Cc1cccc(C(F)(F)F)c1 (centres undefined) .
-- reply 18 nM

----------
Items are presented alongside their recorded pIC50.
target_or_system: Glutamate NMDA receptor
assay_details: Binding affinity at the glycine binding site of the N-methyl-D-aspartate glutamate receptor in rat cortical membranes using [3H]dichlorokynurenate ([3H]DCKA) as radioligand
Friendly reminder that pIC50 comes from taking -log10 of the concentration in mol/L.

These solved cases illustrate the format of a correct answer.
>>> recorded_result("CCOC(=O)C1Nc2cc(Cl)cc(Cl)c2S(=O)(=O)N1Cc1cccc(Oc2ccccc2)c1 (stereo not given)")
8.05
>>> recorded_result("O=C(O)C1Nc2cc(Cl)cc(Cl)c2S(=O)(=O)N1CCS(=O)(=O)c1ccccc1 (stereo not given)")
7.15
>>> recorded_result("O=C(O)C1Nc2cc(Cl)cc(Cl)c2S(=O)(=O)N1Cc1ccc(C(F)(F)F)cc1 (stereo not given)")
7.04
>>> recorded_result("CCOC(=O)C1Nc2cc(Cl)cc(Cl)c2S(=O)(=O)N1Cc1cccc(N)c1 (stereo not given)")
7.54
>>> recorded_result("CCOC(=O)C1Nc2cc(Cl)cc(Cl)c2S(=O)(=O)N1Cc1ccccc1C (stereo not given)")
7.10

-- ask Give the measured pIC50 of O=C(O)C1Nc2cc(Cl)cc(Cl)c2S(=O)(=O)N1CCCCc1ccccc1 (stereo not given) .
-- reply 7.11

-- ask Likewise for CCOC(=O)C1Nc2cc(Cl)cc(Cl)c2S(=O)(=O)N1CCSc1ccccc1 (stereo not given) ?
-- reply 7.42

----------
target_or_system: Glutamate NMDA receptor
assay_details: Binding affinity at the glycine binding site of the N-methyl-D-aspartate glutamate receptor in rat cortical membranes using [3H]dichlorokynurenate ([3H]DCKA) as radioligand
Binary call on IC50 with cut-off 50 nM: strictly below means yes (1), and equality or higher means no (0).

Use the examples below as a reference point.
>>> classification("CCOC(=O)C1Nc2cc(Cl)cc(Cl)c2S(=O)(=O)N1C (stereo not given)")
"no (0)"
>>> classification("CCOC(=O)C1Nc2cc(Cl)cc(Cl)c2S(=O)(=O)N1Cc1ccc(F)cc1 (stereo not given)")
"yes (1)"
>>> classification("O=C(O)C1Nc2cc(Cl)cc(Cl)c2S(=O)(=O)N1Cc1cccc(Br)c1 (single isomer, unassigned; (-))")
"yes (1)"
>>> classification("CCOC(=O)C1Nc2cc(Cl)cc(Cl)c2S(=O)(=O)N1Cc1ccc(OC)cc1 (stereo not given)")
"yes (1)"
>>> classification("O=C(O)C1Nc2cc(Cl)cc(Cl)c2S(=O)(=O)N1c1ccccc1 (stereo not given)")
"no (0)"

Switching to the query record.
-- ask Find out if reported IC50 for O=C(O)C1Nc2cc(Cl)cc(Cl)c2S(=O)(=O)N1Cc1ccccc1 (stereo not given) is less than 50 nM
-- reply yes (1)
